- TESTED_SYSTEM: T1, human uPAR displayed on the surface of MDA-MB-231 cells (human, UniProt Q03405 23-305)
- T1 construct: whole, on cells; also called cell-surface uPAR; cellular uPAR
- T1 sequence (Q03405 23-305): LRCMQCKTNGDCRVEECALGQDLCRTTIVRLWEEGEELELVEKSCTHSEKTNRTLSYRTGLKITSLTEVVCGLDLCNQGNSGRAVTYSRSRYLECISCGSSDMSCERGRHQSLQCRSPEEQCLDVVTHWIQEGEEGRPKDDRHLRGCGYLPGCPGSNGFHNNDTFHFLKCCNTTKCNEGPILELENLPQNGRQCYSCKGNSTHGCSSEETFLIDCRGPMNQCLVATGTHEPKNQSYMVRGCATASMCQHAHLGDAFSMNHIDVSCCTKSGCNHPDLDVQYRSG
- ASSAY_INFO: flow cytometry (FACS) on MDA-MB-231 cells
Consider the following binders; for each one, report its EC50.
Give your result in nM as a bare value.

What does the record list as EC50 for Antibody 3159 (antibody, human IgG1, V domains shown, Chimeric: mouse VH/VL linked to Herceptin (trastuzumab) human IgG1 / kappa constant regions) VH: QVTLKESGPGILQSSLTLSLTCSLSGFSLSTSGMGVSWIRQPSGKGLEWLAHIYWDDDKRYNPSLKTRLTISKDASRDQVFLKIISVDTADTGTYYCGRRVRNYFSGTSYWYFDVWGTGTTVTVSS VL: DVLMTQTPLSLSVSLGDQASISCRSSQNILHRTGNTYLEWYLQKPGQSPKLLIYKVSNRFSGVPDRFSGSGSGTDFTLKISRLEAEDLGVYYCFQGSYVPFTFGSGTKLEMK ?
0.916

Try Antibody 8163 (antibody, human IgG1, V domains shown, Chimeric: mouse VH/VL linked to Herceptin (trastuzumab) human IgG1 / kappa constant regions) VH: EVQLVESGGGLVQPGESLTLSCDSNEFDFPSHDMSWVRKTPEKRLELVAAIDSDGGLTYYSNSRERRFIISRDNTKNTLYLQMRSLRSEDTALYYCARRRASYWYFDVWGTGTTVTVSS VL: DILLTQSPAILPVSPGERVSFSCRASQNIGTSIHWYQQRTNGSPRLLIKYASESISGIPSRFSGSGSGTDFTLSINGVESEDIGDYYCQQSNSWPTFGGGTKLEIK next.
0.69

Try Antibody 3595 (antibody, human IgG1, V domains shown, Chimeric: mouse VH/VL linked to Herceptin (trastuzumab) human IgG1 / kappa constant regions) VH: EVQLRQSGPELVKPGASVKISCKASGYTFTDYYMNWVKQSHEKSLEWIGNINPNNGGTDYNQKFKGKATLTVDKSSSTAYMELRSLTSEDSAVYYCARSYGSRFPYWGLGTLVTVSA VL: DIQMTQTTSSLSASLGDRVTISCRASQDITNYLSWYQQKPDGTVKLLIFYTSFLQSGVPLRFSGSGSGADYSLTISNLEQEDFATYFCQQGHTLPWTFGGGTKLEIK next.
0.453

Try Antibody 11857 (antibody, human IgG1, V domains shown) VH: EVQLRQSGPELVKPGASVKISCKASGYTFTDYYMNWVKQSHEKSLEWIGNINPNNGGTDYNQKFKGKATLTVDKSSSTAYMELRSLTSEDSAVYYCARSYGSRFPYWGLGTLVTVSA VL: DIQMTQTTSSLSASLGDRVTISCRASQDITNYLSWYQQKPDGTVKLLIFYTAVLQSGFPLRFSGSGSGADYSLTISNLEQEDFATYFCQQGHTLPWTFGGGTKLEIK next.
2.07
